System: Streptococcus pyogenes
Experiment: MIC test, microdilution method (CLSI)
Format: cell-based
Settings: ATCC strain of Streptococcus pyogenes, 18-20 h at 37° C., MIC = concentration at which growth inhibited ≥80%, read-out: Activity (MIC) Spy
Each item that follows carries a reported MIC.
readoutName: MIC (µg/mL)

| smilesRepresentation | readoutName | readoutUnit | valueModifier | quantitativeReadout |
| --- | --- | --- | --- | --- |
| NC(=O)[C@@H](O)CNC(=O)c1ccc(O[C@@H](CC2CCCCC2)c2cccc(-c3ccc(C(F)(F)F)cc3)c2)cc1 | MIC | µg/mL | = | 1 |
| CNC(=O)[C@@H](O)CNC(=O)c1ccc(O[C@@H](CC2CCCCC2)c2cccc(-c3ccc(C(F)(F)F)cc3)c2)cc1 | MIC | µg/mL | = | 4 |
| NC(=O)[C@@H](O)CNC(=O)c1ccc(O[C@@H](CC2CCCCC2)c2ccc(-c3ccc(F)cc3)cc2)cc1 | MIC | µg/mL | = | 4 |
| NC(=O)[C@@H](O)CNC(=O)c1ccc(O[C@@H](CC2CCOCC2)c2ccc(-c3ccc(C(F)(F)F)cc3)cc2)cc1 | MIC | µg/mL | > | 128 |
| CC(C)[C@H](Oc1ccc(C(=O)NC[C@H](O)C(N)=O)cc1)c1ccc(-c2ccc(C(F)(F)F)cc2)cc1 | MIC | µg/mL | = | 4 |
| CC(C)C[C@H](Oc1ccc(C(=O)NC[C@H](O)C(N)=O)cc1)c1ccc(-c2ccc(C(F)(F)F)cc2)cc1 | MIC | µg/mL | > | 128 |
